Measured values drawn from PubChem BioAssay (NCATS) for this set.

# assay: Primary fluorescence-based thiol-reactive (MSTI) qHTS assay for identification of artifact compounds. (AID 1845221); also: nearly all actives have a fitted effect of over 65% in size
# settings: MSTI thiol-reactivity probe, 1 h; series mostly up to 53.8 µM
# Source text: PI: Alexander Tropsha Ph.D. UNC Eshelman School of Pharmacy University of North Carolina, Chapel Hill, North Carolina Hits from high-throughput screening (HTS) of chemical libraries are often false positives due to their interference with the assay detection technology. […] Using these curated datasets, we developed and validated several Quantitative Structure-Interference Relationship (QSIR) models to predict nuisance behavior. […]
Results filed as inconclusive are left out. Calls of active or inactive are those of the source. Calls follow the shape of the dose curve; as a rule, active = well fitted inhibition curve with a large enough effect; inconclusive = small, poorly fitted or top-dose-only effect; inactive = no such curve, though single readings can be large or run the other way.
Classes used: true (1) for active, false (0) for inactive

>  <molecule>
COc1ccc(C[C@H]2COC(=O)[C@@H]2Cc2ccc(O[C@@H]3O[C@H](CO)[C@@H](O)[C@H](O)[C@H]3O)c(OC)c2)cc1OC

>  <group>
false (0)

$$$$
>  <molecule>
Cc1cc(C)nc(SCC(=O)Nc2ncc(Cc3cccc4ccccc34)s2)n1

>  <group>
false (0)

$$$$
>  <molecule>
COC(=O)c1cc(Br)cnc1N1CCC(NC2CCCCC2)C(O)C1 (stereo unspecified)

>  <group>
false (0)

$$$$
>  <molecule>
C=C1C(=O)OC2/C=C(\CO)CC/C=C(\C=O)C(O)C(OC(=O)C(C)CC)C12 (stereo unspecified)

>  <group>
true (1)

$$$$
>  <molecule>
C=C1C(=O)O[C@@H]2C[C@H](C)C3=CC(=O)[C@H](O)[C@@]3(C)C[C@H]12

>  <group>
true (1)

$$$$
>  <molecule>
C=C1CC2OC(=O)C(COC)C2C(OC(=O)/C(C)=C\C)CC2(C)OC1=CC2=O (stereo unspecified)

>  <group>
false (0)

$$$$
>  <molecule>
COc1ccccc1N1CCN(CC(C(=O)NC(C)(C)C)c2ccccc2)CC1 (stereo unspecified)

>  <group>
false (0)

$$$$
>  <molecule>
O=C(Nc1ccccc1C(=O)NC1CCCCNC1=O)c1cc2ccccc2s1 (stereo unspecified)

>  <group>
false (0)

$$$$
>  <molecule>
O=C(NCCN1CCN(c2cccc3c2OCCO3)CC1)c1ccc(F)cc1

>  <group>
false (0)

$$$$
>  <molecule>
Cc1cc(N2CCOCC2)ccc1Nc1nc(NC2CCCCC2)c2[nH]cnc2n1

>  <group>
true (1)

$$$$
>  <molecule>
CCCc1cc(C)n(C)c(=O)c1CN(C)C(=O)c1cc(-c2ccc(N3CCN(C(C)C)CC3)nc2)cc2c1cnn2C(C)C

>  <group>
false (0)

$$$$
>  <molecule>
CC(C)(N)c1ncc(-c2ccc(OC(F)(F)F)cc2)[nH]1

>  <group>
false (0)

$$$$
>  <molecule>
CC(=O)CC(=O)Nc1ccc(Cl)c(C(F)(F)F)c1

>  <group>
false (0)

$$$$
>  <molecule>
C=C1C(=O)O[C@@H]2/C=C(\CO)CC/C=C(\CO)[C@H](OC(C)=O)C(OC(=O)C(C)CC)C12 (stereo partly specified)

>  <group>
false (0)

$$$$
>  <molecule>
CC(=O)OC(C)(C)/C=C/C(=O)[C@](C)(O)[C@H]1C(O)C[C@@]2(C)[C@@H]3CC=C4[C@@H](C=C(O[C@@H]5O[C@H](CO)[C@@H](O)[C@H](O)[C@H]5O)C(=O)C4(C)C)[C@]3(C)C(=O)C[C@]12C (stereo partly specified)

>  <group>
false (0)

$$$$
>  <molecule>
C[C@@H]1O[C@@H](O[C@H]2[C@@H]3C=CO[C@@H](O[C@@H]4O[C@H](CO)[C@@H](O)[C@H](O)[C@H]4O)[C@@H]3[C@@]3(CO)O[C@@H]23)[C@H](O)[C@H](OC(=O)/C=C/c2ccccc2)[C@H]1O

>  <group>
false (0)

$$$$

* * *

# assay: Primary qHTS for inhibitors of nuclear receptor binding SET domain protein 2 (NSD2) in an isogenic RCH-ACV NSD2 p.E1099K mutant (9B) (AID 1645876); also: nearly all actives have a fitted effect of over 70% in size
# settings: RCH-ACV (leukaemia line) NSD2 E1099K (9B) viability, CellTiter-Glo, 72 h; series mostly up to 44.9 µM
Records with an inconclusive call do not appear. Active and inactive are the calls of the source. Calls come from the whole dose curve; as a rule, active = well fitted inhibition curve with a large enough effect; inconclusive = small, poorly fitted or top-dose-only effect; inactive = flat fitted curve, though single readings scatter.
Classes used: active, inactive

>  <molecule>
CCc1cccc(CC)c1-n1c(C=C(C)C)c(C(=O)N2CCNCC2)cc(-c2nc(-c3ccc(C(F)(F)F)cc3)cs2)c1=O

>  <group>
active

$$$$
>  <molecule>
CC1CCCC(O)CC(=O)c2c(O)cc(O)cc2CC(=O)O1 (stereo unspecified)

>  <group>
active

$$$$
>  <molecule>
O=S(=O)(N[C@H]1CCCC[C@@H]1N1CCOCC1)c1ccc(Cl)cc1

>  <group>
inactive

$$$$
>  <molecule>
C[C@H](Oc1cc(-c2cnn(C3CCNCC3)c2)cnc1N)c1c(Cl)ccc(F)c1Cl

>  <group>
active

$$$$
>  <molecule>
CCCCC1CCN(CCCN2C(=O)CCc3ccccc32)CC1

>  <group>
active

$$$$
>  <molecule>
COc1cc(S(C)(=O)=O)ccc1Nc1nc2ccc(-c3ccc(NC(=O)[C@H](C)c4ccc(F)cc4)cc3)cn2n1

>  <group>
active

$$$$
>  <molecule>
CN(C)C(=O)Nc1cccc(-c2ccc(N(C)C)cc2)c1

>  <group>
inactive

$$$$
>  <molecule>
C=C1C(=O)O[C@H]2C3=C(C)CCC[C@]3(C)C(=O)C[C@@H]12

>  <group>
active

$$$$
>  <molecule>
CS(=O)(=O)Nc1cc2occ(NC=O)c(=O)c2cc1Oc1ccccc1

>  <group>
inactive

$$$$
>  <molecule>
Cc1cc(CS(=O)(=O)c2ccccc2)cc(OCc2ccc(CN3CCCC3CO)cc2)c1 (stereo unspecified)

>  <group>
active

$$$$
>  <molecule>
O=C(NCCN1CCOCC1)c1cc2c(Oc3ccc(NC(=O)C4(C(=O)Nc5ccc(F)cc5)CC4)cc3)ccnc2[nH]1

>  <group>
active

$$$$
>  <molecule>
C[C@@H]1CC[C@@]23CC[C@]4(C)[C@@](C=CC5[C@@]6(C)CC[C@H](O)C(C)(C)C6CC[C@]54C)(OC2=O)C3[C@H]1C (stereo partly specified)

>  <group>
inactive

$$$$
>  <molecule>
CCn1c(-c2nonc2N)nc2c(C#CC(C)(C)O)ncc(OCC3CCCNC3)c21 (stereo unspecified)

>  <group>
active

$$$$
>  <molecule>
NC(=O)c1ccccc1Nc1ccnc(Nc2cccc(O)c2)n1

>  <group>
active

$$$$
>  <molecule>
COc1c2c(nc3occc13)C(CC=C(C)C)(OC)C(O)CC2 (stereo unspecified)

>  <group>
inactive

$$$$
>  <molecule>
Cn1cc(C2=C(c3coc4ccccc34)C(=O)NC2=O)c2cc(Br)ccc21

>  <group>
active

$$$$
>  <molecule>
Cc1ccc(O)cc1Nc1ccnc(Nc2cccc(C(N)=O)c2)n1

>  <group>
active

$$$$
>  <molecule>
CC(=O)O[C@]1(C(C)=O)CC[C@H]2[C@@H]3CCC4=CC(=O)CCC4=C3[C@@H](c3ccc(N(C)C)cc3)C[C@@]21C

>  <group>
active

$$$$
>  <molecule>
Cc1[nH]c2ccccc2c1CCNC(=O)c1cccs1

>  <group>
inactive

$$$$
>  <molecule>
Cc1csc2c(N[C@@H](C)CN3CCN(S(=O)(=O)c4ccc(Cl)c(Cl)c4)CC3)ncnc12

>  <group>
active

$$$$
>  <molecule>
CC1OC(=O)C[C@@H]2C(C(=O)O)=CO[C@@H](O[C@H]3O[C@H](CO)[C@@H](O)[C@H](O)[C@H]3O)[C@H]12 (stereo partly specified)

>  <group>
inactive

$$$$

* * *

# assay: Confirmatory screen GU Rhodamine qHTS for Zika virus inhibitors qHTS (AID 1347157); also: potency is read from the fitted curve at half-maximal effect; nearly all actives have a fitted effect of over 70% in size
# settings: purified enzyme assay, Rhodamine110 substrate fluorescence, 15 min; series mostly up to 114 µM
Records with an inconclusive call do not appear. Activity calls are given as the source filed them. Calls come from the whole dose curve; as a rule, active = well fitted inhibition curve with a large enough effect; inconclusive = small, poorly fitted or top-dose-only effect; inactive = flat fitted curve, though single readings scatter.

>  <smiles-notation>
COc1ccc2nccc(C(=O)CC[C@@H]3CCN(CC#Cc4cc(F)cc(F)c4F)C[C@@H]3C(=O)O)c2c1

>  <Potency>
39.3 µM (active)

$$$$
>  <smiles-notation>
CC(C)(C)Sc1c(CC(C)(C)C(=O)O)n(Cc2ccc(Cl)cc2)c2ccc(OCc3ccc4ccccc4n3)cc12

>  <Potency>
3.93 µM (active)

$$$$
>  <smiles-notation>
CCCCCc1ccc(/C=C/C(=O)Nc2cc(Cl)ccc2C(=O)O)cc1

>  <Potency>
1.75 µM (active)

$$$$
>  <smiles-notation>
CC#C[C@@H](CC(=O)O)c1ccc(OCc2ccc(CN3CCC4(C=Cc5ccccc54)CC3)s2)cc1

>  <Potency>
2.78 µM (active)

$$$$
>  <smiles-notation>
N#Cc1ccc(N2N=C3c4ccc(C(=O)O)cc4CC[C@@H]3[C@@H]2C2CCCC2)cc1Cl

>  <Potency>
2.21 µM (active)

$$$$
>  <smiles-notation>
Cc1noc(-c2ccc(-c3ccc(CC(=O)O)cc3)cc2)c1NC(=O)O[C@H](C)c1ccccc1Cl

>  <Potency>
5.55 µM (active)

$$$$
